What responders at 8 mg/kg was measured for each of the following?
- System: Plasmodium berghei (KBG-173 strain)
- Protocol description: Plasmodium berghei assay in vivo (modified Thompson Test), survival of infected mice
- Design: species or system Charles River CD-1 mice
- Experimental conditions: Plasmodium berghei, 744 h; 8 mg/kg/day, oral bid on days 3, 4 and 5; read-out: Number of mice alive at day 31 (converted)
One number for each entry, in %.

Example results:
# Molecule, responders at 8 mg/kg [%]
data = [
    ("CC(C)(C)NCc1cc(C(C)(C)C)cc(-c2ccc(Cl)c(C(F)(F)F)c2)c1O.Cl [Example 23, hydrochloride]", 100),
    ("CC(C)(C)NCc1cc(C(C)(C)C)cc(-c2ccc(OC(F)(F)F)cc2)c1O", 100),
    ("CC(C)(C)NCc1cc(-c2ccc(Cl)cc2)cc(-c2ccc(Cl)c(Cl)c2)c1O.Cl [Example 39, hydrochloride]", 100),
]

Attention now shifts to the item below.
Ask | Give the measured responders at 8 mg/kg of CC(C)(C)NCc1cc(C(C)(C)C)cc(-c2ccc(F)c(Cl)c2)c1O.Cl [Example 24, hydrochloride] .
Reply | 85.7

###

- Tested on: P. falciparum strain W2 (resistant to chloroquine and pyrimethamine)
- Protocol description: [3H]-hypoxanthine growth inhibition assay, P. falciparum W2
- Format: cell-based
- Experimental conditions: Plasmodium falciparum, W2, read-out: W2 IC50
Property label: IC50 (µM)
Numbers only, in µM.

Ask | Give the measured IC50 of CCN(CC)CCCC(C)Nc1ccnc2cc(Cl)ccc12 (stereo not shown) [Chloroquine, chloroquine, reference compound] .
Reply | 0.133

###

- System: Plasmodium berghei (KBG-173 strain)
- Protocol description: Plasmodium berghei assay in vivo (modified Thompson Test), survival of infected mice
- Design: species or system Charles River CD-1 mice
- Experimental conditions: 64 mg/kg/day, oral bid on days 3, 4 and 5; 31 day experiment
Marks after values point to notes of the source that are not given here.
What Average Days Survival was measured for each of the following?

# Molecule, Target or test system, Average Days Survival
data = [
    ("CC(C)(C)NCc1cc(C(C)(C)C)cc(-c2ccc(C(F)(F)F)cc2)c1O.Cl [Example 22]", "Plasmodium berghei (KBG-173 strain)", ">31* Days"),
]

Record Average Days Survival per entry; entries follow.
1. CC(C)(C)NCc1cc(-c2ccc(Cl)cc2)nc(-c2ccc(Cl)cc2)c1O.Cl [Example 56]
2. CCN(CC)CCCC(C)Nc1ccnc2cc(Cl)ccc12 (stereo not shown) [Chloroquine, chloroquine, reference compound]
3. CC(C)(C)NCc1cc(C(C)(C)C)cc(-c2ccc(OC(F)(F)F)cc2)c1O [Example 5]

Reply |
[">20 days", ">18.6 days", ">31* Days"]

###

- Tested on: Plasmodium berghei (KBG-173 strain)
- Protocol description: Plasmodium berghei assay in vivo (modified Thompson Test), survival of infected mice
- Parameters: species or system Charles River CD-1 mice
- Experimental conditions: Plasmodium berghei, 744 h; 4 mg/kg/day, oral bid on days 3, 4 and 5; read-out: Number of mice alive at day 31 (converted)
responders at 4 mg/kg of 70% or higher: rule met. Under 70%: rule not met.

Below are worked cases with known answers.
# Molecule, Assigned label
rows = [
    ("CC1(NCc2cc(C(C)(C)C)cc(-c3ccc(OC(F)(F)F)cc3)c2O)CCC1.Cl [Example 18, hydrochloride]", "rule not met"),
    ("CC(C)(C)NCc1cc(-c2ccc(Cl)cc2)cc(-c2ccc(Cl)c(Cl)c2)c1O.Cl [Example 39, hydrochloride]", "rule met"),
    ("CC(C)(C)NCc1cc(C(C)(C)C)cc(-c2ccc(OC(F)(F)F)cc2)c1O", "rule not met"),
    ("CC(C)(C)NCc1cc(C(C)(C)C)cc(-c2ccc(Cl)c(C(F)(F)F)c2)c1O.Cl [Example 23, hydrochloride]", "rule met"),
    ("CC(C)(C)NCc1cc(C(C)(C)C)cc(-c2cc(C(F)(F)F)cc(C(F)(F)F)c2)c1O.Cl [Example 16, hydrochloride]", "rule met"),
    ("CC(C)(C)NCc1cc(C(C)(C)C)cc(-c2ccc(C(F)(F)F)cc2)c1O.Cl [Example 22, hydrochloride]", "rule met"),
]

Proceed to the following item.
Ask | Assess whether reported responders at 4 mg/kg for CC(C)(C)NCc1cc(C(C)(C)C)cc(-c2ccc(Cl)c(Cl)c2)c1O.Cl [Example 19, hydrochloride] sits at 70% or higher.
Reply | rule met
